Origin of values: patent US20250186541A1

- targetSystem: UniProtKB Q9NYJ7
Bridge positions count the residues as written; N and C are the ends. Square brackets hold non-standard residues; d marks the D form. Peptide text beside a SMILES is read from it. * marks the point of attachment. DOTA = O=C(O)CN1CCN(CC(=O)O)CCN(CC(=O)*)CCN(CC(=O)O)CC1; Ahx = NCCCCCC(=O)O
Can you tell me pKd for the items I'm about to list?
Give bare numbers, as −log10 of the molar value.

CC(C)C[C@@H]1NC(=O)[C@H](Cc2c[nH]c3ccccc23)NC(=O)[C@@H](NC(=O)[C@H](CC(=O)O)NC(=O)[C@H](CO)NC(=O)CCCCCNC(=O)CN2CCN(CC(=O)O)CCN(CC(=O)O)CCN(CC(=O)O)CC2)CSSC[C@@H](C(=O)N2CCC[C@H]2C(=O)N[C@@H](Cc2ccccc2)C(=O)N[C@@H](CC(=O)O)C(N)=O)NC(=O)[C@H](CC(N)=O)NC(=O)[C@H](Cc2c[nH]c3ccccc23)NC(=O)[C@H](CCC(N)=O)NC1=O [compound 72] ({DOTA-Ahx}-SDCWLQWNCPFD-NH2; disulfide 3-9) | 7.96

Note to self: pKd recorded for CC(=O)N[C@@H](CO)C(=O)N[C@@H](CO)C(=O)N[C@@H](CC(=O)O)C(=O)N[C@H]1CSSC[C@@H](C(=O)N2CCC[C@H]2C(=O)N[C@@H](Cc2ccccc2)C(=O)N[C@@H](CC(=O)O)C(=O)N[C@H](CCCCNC(=O)CN2CCN(CC(=O)O)CCN(CC(=O)O)CCN(CC(=O)O)CC2)C(N)=O)NC(=O)[C@H](CC(N)=O)NC(=O)[C@H](Cc2c[nH]c3ccccc23)NC(=O)[C@H](CCC(N)=O)NC(=O)[C@H](CC(C)C)NC(=O)[C@H](Cc2c[nH]c3ccccc23)NC1=O [compound 78] (Ac-SSDCWLQWNCPFD[dK](DOTA)-NH2; disulfide 4-10) was 7.80
